# tested.target: Androgen Receptor (Homo sapiens, UniProt P10275)
# Construct: endogenous in cells; host or cells: VCaP cells
# Sequence (P10275 1-920): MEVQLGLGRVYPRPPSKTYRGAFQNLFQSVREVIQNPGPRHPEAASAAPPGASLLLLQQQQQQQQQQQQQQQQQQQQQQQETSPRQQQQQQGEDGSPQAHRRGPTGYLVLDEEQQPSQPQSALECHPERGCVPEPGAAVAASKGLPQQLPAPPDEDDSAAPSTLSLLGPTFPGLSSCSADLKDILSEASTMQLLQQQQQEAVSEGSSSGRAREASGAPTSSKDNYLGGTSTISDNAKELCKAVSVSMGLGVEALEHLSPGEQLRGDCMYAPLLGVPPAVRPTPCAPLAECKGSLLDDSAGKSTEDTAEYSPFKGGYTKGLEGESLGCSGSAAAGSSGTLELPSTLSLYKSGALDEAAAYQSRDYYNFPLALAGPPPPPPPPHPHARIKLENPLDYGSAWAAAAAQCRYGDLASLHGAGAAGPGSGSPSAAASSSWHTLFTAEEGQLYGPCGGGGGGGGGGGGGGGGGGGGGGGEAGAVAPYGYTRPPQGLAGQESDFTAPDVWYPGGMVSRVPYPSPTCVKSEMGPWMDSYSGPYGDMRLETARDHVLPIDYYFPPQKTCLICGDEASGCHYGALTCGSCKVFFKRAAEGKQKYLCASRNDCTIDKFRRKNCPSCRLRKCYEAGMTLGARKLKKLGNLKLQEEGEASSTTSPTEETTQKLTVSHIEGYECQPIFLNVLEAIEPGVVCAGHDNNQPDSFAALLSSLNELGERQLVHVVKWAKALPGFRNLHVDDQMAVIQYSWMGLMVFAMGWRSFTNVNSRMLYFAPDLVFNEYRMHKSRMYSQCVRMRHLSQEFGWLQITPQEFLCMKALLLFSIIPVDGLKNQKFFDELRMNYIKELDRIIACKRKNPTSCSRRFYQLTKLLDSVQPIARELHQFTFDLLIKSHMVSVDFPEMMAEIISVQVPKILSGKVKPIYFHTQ
# assay.remarks: Androgen Receptor ELISA assay (PathScan AR ELISA) in VCaP cells: AR degradation, Dmax and DC50
# Assay type: cell-based
# assay.setup: VCaP cells; Table 36; read-out: VCaP DC50
Parameter DC50: see the listing below.

| structure.smiles | tested.target | reported.value |
| --- | --- | --- |
| Cc1ncsc1-c1ccc([C@H](C)NC(=O)[C@@H]2C[C@@H](O)CN2C(=O)[C@H](c2cc(CCCN3CCN(c4ccc(C(=O)N[C@H]5C(C)(C)[C@H](Oc6ccc(C#N)c(Cl)c6)C5(C)C)cn4)CC3)no2)C(C)C)cc1 | Androgen Receptor (Homo sapiens, UniProt P10275) | > 501 nM |
| CC(C)[C@H](OCCN1CCN(c2ccc(C(=O)N[C@H]3C(C)(C)[C@H](Oc4ccc(C#N)c(Cl)c4)C3(C)C)cn2)CC1)C(=O)N[C@H](C(=O)N1C[C@H](O)C[C@H]1C(=O)NCc1ccc(Cl)cc1)C(C)(C)C | Androgen Receptor (Homo sapiens, UniProt P10275) | > 501 nM |
| Cc1ncsc1-c1ccc([C@H](CO)NC(=O)[C@@H]2C[C@@H](O)CN2C(=O)[C@@H](NC(=O)CCCCN2CCN(c3ccc(C(=O)N[C@H]4C(C)(C)[C@H](Oc5ccc(C#N)c(Cl)c5)C4(C)C)cn3)CC2)C(C)(C)C)cc1 | Androgen Receptor (Homo sapiens, UniProt P10275) | < 50 nM |

Now for another entry.
input: # lookup: DC50 of `Cc1ncsc1-c1ccc([C@H](C)NC(=O)[C@@H]2C[C@@H](O)CN2C(=O)[C@@H](NC(=O)CN2CCN(CCCN3CCN(c4ccc(C(=O)N[C@H]5C(C)(C)[C@H](Oc6ccc(C#N)c(Cl)c6)C5(C)C)cn4)CC3)CC2)C(C)(C)C)cc1`
output: < 50 nM
